All values here come from patent US6177438A.

# SYSTEM_TESTED: δ receptor (Mus musculus, UniProt P32300)
# Construct: The vas deferens extracted from the animal was suspended in a Magnus tube; from tissue; host or cells: mouse (male ddy) vas deferens
# Sequence (P32300 whole entry): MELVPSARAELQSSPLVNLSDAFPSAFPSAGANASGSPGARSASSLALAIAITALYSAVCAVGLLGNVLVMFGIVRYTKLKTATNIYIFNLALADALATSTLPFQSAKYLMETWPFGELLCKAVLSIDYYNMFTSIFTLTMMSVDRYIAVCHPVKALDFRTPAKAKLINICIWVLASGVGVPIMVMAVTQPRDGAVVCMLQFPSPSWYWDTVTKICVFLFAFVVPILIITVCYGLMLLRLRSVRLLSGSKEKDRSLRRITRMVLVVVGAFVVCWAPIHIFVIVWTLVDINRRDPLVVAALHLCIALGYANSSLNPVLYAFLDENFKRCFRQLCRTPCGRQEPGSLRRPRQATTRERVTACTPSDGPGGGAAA
# Parameters: species or system male ddy mouse
# TEST_SETTINGS: mouse vas deferens, δ, NTI added

COMPOUND	SYSTEM_TESTED	Ke, NTI
COc1cccc(C#CC(=O)N(C)[C@@H]2CC[C@@]3(O)[C@H]4Cc5ccc(O)c6c5[C@@]3(CCN4CC3CC3)[C@H]2O6)c1.O=C(O)C(O)C(O)C(=O)O [Compound 173]	δ receptor (Mus musculus, UniProt P32300)	21.3 nM
CN(C(=O)C#Cc1ccc(C(F)(F)F)cc1)[C@H]1CC[C@@]2(O)[C@H]3Cc4ccc(O)c5c4[C@@]2(CCN3CC2CC2)[C@H]1O5 [Compound 126]	δ receptor (Mus musculus, UniProt P32300)	0.0065 nM
CCCCCC(=O)N(C)[C@H]1CC[C@@]2(O)[C@H]3Cc4ccc(O)c5c4[C@@]2(CCN3CC2CC2)[C@H]1O5 [Compound 39]	δ receptor (Mus musculus, UniProt P32300)	99.3 nM
CN(C(=O)C#Cc1ccccc1)[C@H]1CC[C@@]2(O)[C@H]3Cc4ccc(O)c5c4[C@@]2(CCN3CC2CC2)[C@H]1O5 [Compound 84]	δ receptor (Mus musculus, UniProt P32300)	0.309 nM
C=CCN1CC[C@]23c4c5ccc(O)c4O[C@H]2[C@@H](N(C)C(=O)Cc2ccc(Cl)c(Cl)c2)CC[C@@]3(O)[C@H]1C5 [Compound 122]	δ receptor (Mus musculus, UniProt P32300)	42.7 nM
CN(C(=O)C#Cc1ccccc1)[C@@H]1CC[C@@]2(O)[C@H]3Cc4ccc(O)c5c4[C@@]2(CCN3CC2CC2)[C@H]1O5 [Compound 101]	δ receptor (Mus musculus, UniProt P32300)	31.6 nM
CN(C(=O)/C=C/c1ccc(C(F)(F)F)cc1)[C@@H]1CC[C@@]2(O)[C@H]3Cc4ccc(O)c5c4[C@@]2(CCN3CC2CC2)[C@H]1O5 [Compound 73]	δ receptor (Mus musculus, UniProt P32300)	78 nM
CN(C(=O)Cc1ccc(Cl)c(Cl)c1)[C@@H]1CC[C@@]2(O)[C@H]3Cc4ccc(O)c5c4[C@@]2(CCN3CC2CC2)[C@H]1O5 [Compound 53]	δ receptor (Mus musculus, UniProt P32300)	1676 nM
CN(C(=O)CCc1ccccc1)[C@@H]1CC[C@@]2(O)[C@H]3Cc4ccc(O)c5c4[C@@]2(CCN3CC2CC2)[C@H]1O5 [Compound 57]	δ receptor (Mus musculus, UniProt P32300)	747 nM
CN(C(=O)/C=C/c1cccc(F)c1)[C@H]1CC[C@@]2(O)[C@H]3Cc4ccc(O)c5c4[C@@]2(CCN3CC2CC2)[C@H]1O5 [Compound 96]	δ receptor (Mus musculus, UniProt P32300)	1.61 nM
CN(C(=O)/C=C/c1cccc([N+](=O)[O-])c1)[C@@H]1CC[C@@]2(O)[C@H]3Cc4ccc(O)c5c4[C@@]2(CCN3CC2CC2)[C@H]1O5 [Compound 104]	δ receptor (Mus musculus, UniProt P32300)	89 nM
CCCCCC(=O)N(C)[C@@H]1CC[C@@]2(O)[C@H]3Cc4ccc(O)c5c4[C@@]2(CCN3CC2CC2)[C@H]1O5 [Compound 62]	δ receptor (Mus musculus, UniProt P32300)	90.2 nM
